Target: wt human LRRK2, catalytic site (Homo sapiens (Human))
Sequence (Q5S007 1879-2138): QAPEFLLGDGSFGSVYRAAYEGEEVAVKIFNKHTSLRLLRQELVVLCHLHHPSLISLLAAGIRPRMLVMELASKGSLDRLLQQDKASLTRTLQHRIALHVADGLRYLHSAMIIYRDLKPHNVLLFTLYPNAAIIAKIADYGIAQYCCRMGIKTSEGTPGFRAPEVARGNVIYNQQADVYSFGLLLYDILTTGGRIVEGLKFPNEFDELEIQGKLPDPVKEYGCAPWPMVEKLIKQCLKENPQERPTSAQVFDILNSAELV
Assay: TR-FRET LanthaScreen Tb Kinase Activity Assay (LRRK2 kinase inhibition)
Conditions: 2 nM wt human LRRK2, 400 nM fluorescein-ERM (LRRKtide) peptide, 38 μM ATP, 120 minutes at room temperature
recorded_endpoint: IC50

>  <molecule>
CCNc1nc(Nc2cccc3c2cnn3C(C)(C)C#N)ncc1C(F)(F)F [Example 154]

>  <data_value>
< 0.05 µM

$$$$
>  <molecule>
CC(C)Nc1nc(Nc2cccc3c2cnn3CC#N)ncc1C(F)(F)F [Example 110]

>  <data_value>
≥ 0.2 µM

$$$$
>  <molecule>
CNc1nc(Nc2nn(C)c3ccccc23)ncc1C(F)(F)F [Example 67]

>  <data_value>
≥ 0.2 µM

$$$$
>  <molecule>
CC(C)(C)n1ncc2c(Nc3ncc(C(F)(F)F)c(NC4CC4)n3)cccc21 [Example 196]

>  <data_value>
< 0.05 µM

$$$$

Exercise: Find the measured IC50 of CC(C)(C#N)n1ncc2c(Nc3ncc(C(F)(F)F)c(NCCF)n3)cccc21 [Example 144] and report it.
Key: < 0.05 µM

Data credit: patent US20240174647A1
